assay info: Human HepG2 cell viability assay in 384 well format
Assay type: toxicity, cell-based
Set-up: dose 125 nL, time 70.5 hour; concentration not given beside the values
condition description: HepG2 cells, read-out: Inhibition
result type: cytotoxicity at 70.5 h (%)
Express your answer in %, writing the number without its unit.

Consider the worked cases shown below.
# molecule, cytotoxicity at 70.5 h / %
records = [
    ("CC(C)Sc1ccc(C(C)Nc2nc3c(cnn3C)c(=O)[nH]2)cc1 (stereo not drawn)", -3.27),
    ("COC(=O)[C@@H](NC(=O)c1coc(COc2cccc(F)c2)n1)C(C)C", 4.83),
    ("C=C(C)COc1cccc(CNCc2nc3ccccc3c(=O)[nH]2)c1", 0.0265),
    ("Cn1c(NCC(=O)N2CCCC2)c(C#N)c(=O)n(C)c1=O", 12.4),
    ("Cn1nccc1CNC(=O)C1CCCCC1", -2.81),
    ("CC(C(=O)N1CCC(Cc2ccc(F)cc2)CC1)n1ccnc1 (stereo not drawn)", 20.4),
    ("CCc1nc(Cn2nc(COC)oc2=O)cs1", -9.78),
    ("CCCc1nc(C(=O)N2CCN(C(=O)c3ccc(OC)cc3)CC2)cs1", -5.88),
]

As a next step, examine the molecule that follows.
### Prompt Quick one: cytotoxicity at 70.5 h of CNC(=O)C1(c2cnccn2)CCCN1C(=O)c1ccccc1C (stereo not drawn) ?
### Response 15.3

* * *

assay info: Human HepG2 cell viability assay in 384 well format
Format: toxicity, cell-based
Set-up: dose 125 nL, time 70.5 hour; concentration not given beside the values
condition description: HepG2 cells, read-out: Inhibition
The compounds listed here are annotated with their cytotoxicity at 70.5 h.
Express your answer in %, writing the number without its unit.

Consider the worked cases shown below.
# compound, cytotoxicity at 70.5 h, %
data = [
    ("CCn1nc(C)c(C(=O)N2CCC(Nc3ccc(C)nn3)CC2)c1C", -106),
    ("CO[C@@H]1CN(c2ccccc2)S(=O)(=O)[C@@]12CCN(CC1CC1)C2", -6.15),
    ("CN(C)C(=O)C1CN(Cc2c[nH]cn2)CCN(C2CCOCC2)C1 (centres undefined)", -0.471),
    ("COc1ccc(C(C)=O)c(OCC(=O)NC(C)c2ccc(F)cc2)c1 (centres undefined)", -14.9),
    ("CCNC(=O)C1(Cc2cc(-c3ccccc3)no2)CCCN(C)C1 (centres undefined)", -5.43),
]

### Prompt Quick one: cytotoxicity at 70.5 h of `CN(C)Cc1nc(C(C)(C)NC(=O)c2cccc3ccccc23)no1` ?
### Response -7.53

### Prompt Do the same for `Cc1noc(-c2ccc(N(C)Cc3cccnc3)nc2)n1` please
### Response -15.4

### Prompt Do the same for `O[C@@]1(CNCCCNc2cccnc2)CCCN2CCCC[C@@H]21` please
### Response -5.62

* * *

The compounds listed here are annotated with their cytotoxicity at 70.5 h.
assay info: Human HepG2 cell viability assay in 384 well format
Type: toxicity, cell-based
Set-up: dose 125 nL, time 70.5 hour; concentration not given beside the values
condition description: HepG2 cells, read-out: Inhibition
Express your answer in %, writing the number without its unit.

# compound, cytotoxicity at 70.5 h [%]
data = [
    ("COCC(=O)N1CCN(C(C)c2ncc(-c3ccccc3)o2)CC1 (configuration not stated)", -13.2),
    ("Cc1ncsc1C(=O)N(C)Cc1ccc(Br)o1", 20.1),
    ("COc1ccc(CN(C)[C@@H]2COC[C@H]2c2ccc(F)cc2)cc1", -10.1),
    ("CN(Cc1ccc(-n2cccn2)cc1)CC1CCCN1c1cccnn1 (configuration not stated)", -10.7),
    ("Cc1noc(C(C)C)c1C(=O)NCCCN1CCNCC1", -7.14),
    ("NC(=O)c1cccc(NC(=O)CSc2ccc3c(c2)CCC3)c1", -1.16),
    ("O=C1CC(c2ccc3c(c2)OCO3)c2cn[nH]c2N1 (configuration not stated)", -11.7),
    ("CN(C)c1nc2c(c(N3CCCC4(CC3)CNC(=O)O4)n1)CCCC2 (configuration not stated)", -1.83),
]

### Prompt Quick one: cytotoxicity at 70.5 h of CCc1nccn1C1CCCN(C(=O)c2ccc(N(C)C)nn2)C1 (configuration not stated) ?
### Response -7.7

### Prompt Do the same for Cc1ccc(CCCC(=O)N2CCN(C3CCCN(C)C3)CC2)s1 (configuration not stated) please
### Response -2.97

### Prompt Do the same for `O=C(CCc1nnc(-c2ccccc2)o1)N1CCN(CC2CC2)CC1` please
### Response 1.86

### Prompt Do the same for `Cc1ccc(C(=O)Nc2ccc(N3CCCC3)cn2)cc1F` please
### Response 19.7

* * *

assay info: Human HepG2 cell viability assay in 384 well format
Assay type: toxicity, cell-based
Parameters: dose 125 nL, time 70.5 hour; concentration not given beside the values
condition description: HepG2 cells, read-out: Inhibition
The compounds listed here are annotated with their cytotoxicity at 70.5 h.
Returns: string containing the number followed by the unit.

# compound, cytotoxicity at 70.5 h
measured = [
    ("COc1ccc2c(ccn2CCC(=O)Nc2n[nH]c(CC(C)C)n2)c1", "24%"),
]

### Prompt Quick one: cytotoxicity at 70.5 h of O=S(=O)(CC1CCCN1S(=O)(=O)c1cccnc1)c1ccccc1 (stereo unspecified) ?
### Response -8.38%

### Prompt Do the same for `CCCn1ncc(CN2C[C@@H]3CCCN3C[C@@H]2CCSC)c1C` please
### Response 8.56%

### Prompt Do the same for Cc1nc2c(c(N(C)CC3Cc4ccccc4CN3C)n1)CCNCC2 (stereo unspecified) please
### Response 11.4%

* * *

The molecules listed here are annotated with their cytotoxicity at 70.5 h.
assay info: Human HepG2 cell viability assay in 384 well format
Assay type: toxicity, cell-based
Design: dose 125 nL, time 70.5 hour; concentration not given beside the values
condition description: HepG2 cells, read-out: Inhibition

# molecule, reported
records = [
    ("CC(C)CS(=O)(=O)CCNC(=O)Nc1cccc2ncccc12", "19.9%"),
]

### Prompt Quick one: cytotoxicity at 70.5 h of `COc1cccc(OCC(=O)N2CCOc3ccncc32)c1` ?
### Response 13.2%

### Prompt Do the same for `CNS(=O)(=O)c1ccc(CN2CCCN(c3ccccc3)CC2)cc1` please
### Response 18%

### Prompt Do the same for O=C(C1SCCc2ccccc21)N1CCC(O)CC1 (stereo not given) please
### Response -7.52%

### Prompt Do the same for Cc1n[nH]c(C2CN(CC(=O)NCCc3ccc(F)cc3)CCO2)n1 (stereo not given) please
### Response -114%

### Prompt Do the same for `CN(Cc1ccc(Cl)c(F)c1)C(=O)c1ccncc1F` please
### Response -6.79%

### Prompt Do the same for CCn1ccnc1CN1CCCC1C(=O)Nc1nccs1 (stereo not given) please
### Response -5.23%

* * *

The compounds listed here are annotated with their cytotoxicity at 70.5 h.
assay info: Human HepG2 cell viability assay in 384 well format
Type: toxicity, cell-based
Design: dose 125 nL, time 70.5 hour; concentration not given beside the values
condition description: HepG2 cells, read-out: Inhibition
Express your answer in %, writing the number without its unit.

# compound, unit, cytotoxicity at 70.5 h
rows = [
    ("Cc1cc(NC(=O)CN(CC2CCOC2)C2CC2)no1 (configuration not stated)", "%", 0.647),
]

### Prompt Quick one: cytotoxicity at 70.5 h of CC(=O)N1CCN(CCNC(=O)NC(C)Cn2ccnc2)CC1 (configuration not stated) ?
### Response -2.74

### Prompt Do the same for `NC(=O)c1ccc(OCC(=O)NS(=O)(=O)c2ccc3c(c2)CCC3)cc1` please
### Response -2.69

* * *

assay info: Human HepG2 cell viability assay in 384 well format
Format: toxicity, cell-based
Parameters: dose 125 nL, time 70.5 hour; concentration not given beside the values
condition description: HepG2 cells, read-out: Inhibition
result type: cytotoxicity at 70.5 h (%)
Express your answer in %, writing the number without its unit.

# compound, cytotoxicity at 70.5 h / %
data = [
    ("Cc1cc(C)n(CC2CCCCN2C(=O)c2ccc3c(c2)OCO3)n1 (stereo not drawn)", -2.07),
    ("CCc1ncc(CN(CCc2ccccc2)Cc2cccs2)cn1", -2.18),
    ("Cc1nn(CCO)cc1CN1CCC(N2CCC(O)CC2)CC1", 1.99),
    ("O=C(c1cnccn1)N1CCCC2(CCN(Cc3cccnc3)C2)C1 (stereo not drawn)", -4.19),
]

### Prompt Quick one: cytotoxicity at 70.5 h of CNC(=O)C1CCCN(C(=O)c2ccccc2-n2cc(CN)cn2)C1 (stereo not drawn) ?
### Response 2.43

* * *

assay info: Human HepG2 cell viability assay in 384 well format
Format: toxicity, cell-based
Parameters: dose 125 nL, time 70.5 hour; concentration not given beside the values
condition description: HepG2 cells, read-out: Inhibition
result type: cytotoxicity at 70.5 h

Consider the worked cases shown below.
# compound, reported
records = [
    ("CCc1nnc2n1CCN(Cc1nc(-c3ccoc3)no1)C2", "-7.66%"),
    ("CC(C)Cc1ncc2c(n1)CN(c1cc(NCCO)nc(N)n1)C2", "-8.13%"),
    ("Cn1nc(C2CCCN(Cc3cccc(F)c3)C2)c2nccnc21 (stereo not drawn)", "-4.33%"),
    ("O=C(CCCNc1ncccn1)N1CCCC(n2ccnc2)C1 (stereo not drawn)", "-3.12%"),
    ("CN(C)S(=O)(=O)N1CC[C@]2(O)CCN(c3nc4ccccc4s3)C[C@@H]2C1", "3.99%"),
]

### Prompt Quick one: cytotoxicity at 70.5 h of `Cc1cc(CN2CCN(C(=O)c3ccc(=O)n(C)c3)CC2)no1` ?
### Response -5.04%

### Prompt Do the same for CC(C)(C)c1nc(CN2CCCC(c3noc(C4CC4)n3)C2)no1 (stereo not drawn) please
### Response -4.22%

### Prompt Do the same for `CCOc1cccc2c1OCC(C(=O)NS(=O)(=O)c1ccc(C)s1)=C2` please
### Response -4.35%

### Prompt Do the same for COC1CCCN(Cc2cc(O)c3cc(C)cc(C)c3n2)C1 (stereo not drawn) please
### Response -2.68%

### Prompt Do the same for `Cn1cc(C(=O)Nc2ccc3c(c2)CN(C(=O)c2ccco2)CC3)nn1` please
### Response -4.02%

### Prompt Do the same for CCN1CC2(CC1=O)CN(C(C)=O)CCN(C(=O)c1ccco1)C2 (stereo not drawn) please
### Response -9.45%

### Prompt Do the same for CN1CCC(c2nnc3ccc(C(=O)NC4CCCC4)cn23)C1 (stereo not drawn) please
### Response 15%

### Prompt Do the same for `CCOCCCNC(=O)CN(c1cccc(F)c1)S(C)(=O)=O` please
### Response -21.2%

### Prompt Do the same for CC(C(=O)Nc1ccc2ccccc2c1)N1CCC(n2ccnc2)CC1 (stereo not drawn) please
### Response -4.02%

Hello, the source for this data is ChEMBL document CHEMBL3507680, in case you need it.
